- System: monocyte-free human T cells
- assay-summary: Inhibition of 5-HT-dependent T cell proliferation
- Assay type: cell-based
- measurement-conditions: PWM (1:200) and 5-HT (100 μM) stimulated T cells, 3H-thymidine incorporation on day 7, tested at 33 μM-0.1 μM
pIC50: −log10 of the molar value.
Threshold check on pIC50: at or above 6 gives class 1, strictly below gives class 0.

CC(C)(C)c1ccc(CN2CCN(CCCN3CC4C5c6ccccc6C(c6ccccc65)C4C3)CC2)cc1 (stereo not shown): class 0

Given FC(F)(F)c1ccccc1CCN1CCN(CCCN2CC3C4c5ccccc5C(c5ccccc54)C3C2)CC1 (stereo not shown) , state whether its pIC50 is at least 6. class 0

Quick check, pIC50 >= 6? c1ccc(C(c2ccccc2)N2CCN(CCCN3CC4C5c6ccccc6C(c6ccccc65)C4C3)CC2)cc1 (stereo not shown) class 1

Confirm if pIC50 reported for the compound c1cnc(N2CCN(CCCCN3CC4C5c6ccccc6C(c6ccccc65)C4C3)CC2)nc1 (stereo not shown) is 6 or above. class 0

Hi team, for O=C1C2C3c4ccccc4C(c4ccccc43)C2C(=O)N1CCCN1CCN(C(c2ccccc2)c2ccc(Cl)cc2)CC1 (stereo not shown) , is the recorded pIC50 at or above 6? class 0

Is pIC50 at least 6? Consider c1cnc(N2CCN(CCCN3CC4C5c6ccccc6C(c6ccccc65)C4C3)CC2)nc1 (stereo not shown) class 0

// provenance: patent US5459143A
